Assay: Dose-escalating intravenous infusion study in male Beagle dogs (plasma PK)
Assay type: in vivo
Settings: male, Beagle, plasma; dog, 15 mg/kg IV over 4 h, mean, n = 4 males
Procedure: • Study Animals: Four male non-naïve Beagle dogs were released by Xenometrics for study use on Apr. 20, 2017. […] The pharmacokinetic parameters were determined for BC-2059 following the final 15 mg/kg infusion of the drug over 4 h.
measurementName: Cmax (ng/mL)

[[record]]
molecule = "C[C@@H]1C[C@H](C)CN(S(=O)(=O)c2ccc3c(c2)C(=NO)c2cc(S(=O)(=O)N4C[C@H](C)C[C@H](C)C4)ccc2C3=NO)C1 [BC2059, tegavivint]"
measurementunits = "ng/mL"
result = 1340


* * *

assay: Tegavivint solubility in water and organic solvents; type: physicochemical; details: dichloromethane:ethanol (1:4), organic solvent or mixture; read-out: solubility in dichloromethane:ethanol (1:4)
measurementName: solubility

[[record]]
entrysmiles = "C[C@@H]1C[C@H](C)CN(S(=O)(=O)c2ccc3c(c2)C(=NO)c2cc(S(=O)(=O)N4C[C@H](C)C[C@H](C)C4)ccc2C3=NO)C1"
measurementname = "solubility"
result = "1000 µg/mL"


* * *

assay: Dose-escalating intravenous infusion study in male Beagle dogs (plasma PK); format: in vivo; conditions: male, Beagle, dog, plasma, iv, 15 mg/kg, 15 mg/kg 4 h IV infusion, individual animals, read-out: Plasma BC-2059, 48 h
measurementName: concentration at 48 h (ng/mL)

[[record]]
compound = "C[C@@H]1C[C@H](C)CN(S(=O)(=O)c2ccc3c(c2)C(=NO)c2cc(S(=O)(=O)N4C[C@H](C)C[C@H](C)C4)ccc2C3=NO)C1 [BC2059, tegavivint]"
measurementname = "concentration at 48 h"
result = 664


* * *

test: Dose-escalating intravenous infusion study in male Beagle dogs (plasma PK); type: in vivo; conditions: male, Beagle, plasma; dog, 15 mg/kg IV over 4 h, mean, n = 4 males; read-out: AUC0-120 h
measurementName: AUC(0-t) (ng·h/mL)

[[record]]
entrysmiles = "C[C@@H]1C[C@H](C)CN(S(=O)(=O)c2ccc3c(c2)C(=NO)c2cc(S(=O)(=O)N4C[C@H](C)C[C@H](C)C4)ccc2C3=NO)C1"
measurementname = "AUC(0-t)"
result = 73500


* * *

assay: Pharmacokinetics after slow intravenous bolus in female Sprague-Dawley rats; assay type: in vivo; settings: female, Sprague-Dawley, rat, plasma, iv, 10 mg/kg, 10 mg/kg slow intravenous bolus, regression points 6, 8, 12 and 24 h, read-out: T1/2 Beta (converted)
measurementName: half-life

[[record]]
entrysmiles = "C[C@@H]1C[C@H](C)CN(S(=O)(=O)c2ccc3c(c2)C(=NO)c2cc(S(=O)(=O)N4C[C@H](C)C[C@H](C)C4)ccc2C3=NO)C1"
measurementname = "half-life"
result = "13.8 h"


* * *

assay: Pharmacokinetics after slow intravenous bolus in female Sprague-Dawley rats; format: in vivo; conditions: female, Sprague-Dawley, plasma; rat, 10 mg/kg slow intravenous bolus, mean, n=4
measurementName: clearance (mL/min/kg)

[[record]]
entrysmiles = "C[C@@H]1C[C@H](C)CN(S(=O)(=O)c2ccc3c(c2)C(=NO)c2cc(S(=O)(=O)N4C[C@H](C)C[C@H](C)C4)ccc2C3=NO)C1"
measurementname = "clearance"
result = 9.92


* * *

experiment: Pharmacokinetics after slow intravenous bolus in female Sprague-Dawley rats; type: in vivo; details: female, Sprague-Dawley, plasma; rat, 10 mg/kg slow intravenous bolus
measurementName: MRT last (h)

[[record]]
compound = "C[C@@H]1C[C@H](C)CN(S(=O)(=O)c2ccc3c(c2)C(=NO)c2cc(S(=O)(=O)N4C[C@H](C)C[C@H](C)C4)ccc2C3=NO)C1 [BC2059, tegavivint]"
result = 4.07

